Tested on: K562
measurementNotes: Test for activity of inhibiting tumor cells (CellTiter-Glo cell viability), K562
Assay type: cell-based
conditionSummary: Homo sapiens, half growth inhibition concentration, 72 hours incubation
Each entry below lists one item and its recorded EC50 value.

smilesInput: Cc1cc(Nc2nc(Nc3cc(NC(=O)Nc4ccc(Cl)c(C(F)(F)F)c4)ccc3C)ncc2F)n[nH]1
EC50 (µM): 4
--
smilesInput: Cc1cc(Nc2nc(Nc3cc(NC(=O)Nc4ccc(Cl)c(C(F)(F)F)c4)ccc3C)ncc2C)n[nH]1
EC50 (µM): 4.87
--
smilesInput: COc1cnc(Nc2cc(NC(=O)Nc3ccc(Cl)c(C(F)(F)F)c3)ccc2C)nc1Nc1cc(C)[nH]n1
EC50 (µM): 4.8
--
smilesInput: Cc1cc(Nc2nc(Nc3cc(NC(=O)Nc4ccc(Cl)c(C(F)(F)F)c4)ccc3C)ncc2N)n[nH]1
EC50 (µM): 11.9
